Record form. Attribute: koff. Fill in for each entry.
Molecular target: T1, human PD-L1 (Cat. #10084-H08H, Sino Biological) (human, UniProt Q9NZQ7 19-239)
T1 construct: Bought recombinant protein used in the Biacore test; also called hPDL1; hPD-L1
T1 sequence (Q9NZQ7 19-239 limits assumed): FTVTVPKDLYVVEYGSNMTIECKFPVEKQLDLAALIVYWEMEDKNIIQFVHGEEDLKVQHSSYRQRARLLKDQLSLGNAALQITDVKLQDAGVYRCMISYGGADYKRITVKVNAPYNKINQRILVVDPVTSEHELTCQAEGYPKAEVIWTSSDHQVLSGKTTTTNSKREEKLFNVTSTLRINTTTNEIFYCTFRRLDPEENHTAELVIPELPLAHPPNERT
Assay: SPR, Biacore X100, 1:1 Langmuir
Write the value in s⁻¹ as a bare number.

// query Item under review: H6L11 (antibody, human IgG1, kappa, V domains shown, also called 9-2 H6 and 9-2 L11) VH: QVQLQESGPGLVKPSQTLSLTCTVSGGSISNDYWTWIRQHPGKGLEYIGFISRAGSTYNTPSLKGRVTISRDTSKNQFSLKLSSVTAADTAVYYCARSGGWLAPFDYWGRGTLVTVSS VL: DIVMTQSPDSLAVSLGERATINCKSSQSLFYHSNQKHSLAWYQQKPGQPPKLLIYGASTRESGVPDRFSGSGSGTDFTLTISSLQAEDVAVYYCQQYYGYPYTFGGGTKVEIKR . Reported koff?
// result 0.000113

// query Now this one: H18L61 (antibody, human IgG1, kappa, V domains shown, also called 24D5 H18 and 24D5 L61) VH: QVQLVQSGAEVKKPGASVKVSCKASGYTFTSYWMHWVRQAPGQGLEWMGRISPSSGMAVYNEKFKNRVTMTRDTSTSTVYMELSSLRSEDTAVYYCARGGSSYDYFDYWGQGTTVTVSS VL: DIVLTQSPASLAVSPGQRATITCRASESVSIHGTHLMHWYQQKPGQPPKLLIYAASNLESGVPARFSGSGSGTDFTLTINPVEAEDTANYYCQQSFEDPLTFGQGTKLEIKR
// result 5.63e-05

// query And for H19L61 (antibody, human IgG1, kappa, V domains shown, also called 24D5 H19 and 24D5 L61) VH: QVQLVQSGAEVKKPGASVKVSCKASGYTFTSYWMHWVRQAPGQGLEWMGRISPGGGFTLYNEKFKNRVTMTRDTSTSTVYMELSSLRSEDTAVYYCARGGSSYDYFDYWGQGTTVTVSS VL: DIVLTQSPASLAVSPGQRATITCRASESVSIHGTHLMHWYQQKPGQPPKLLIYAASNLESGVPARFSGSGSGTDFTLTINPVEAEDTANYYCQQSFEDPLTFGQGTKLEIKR ?
// result 7.65e-05

// query Item: H7L11 (antibody, human IgG1, kappa, V domains shown, also called 9-2 H7 and 9-2 L11) VH: QVQLQESGPGLVKPSQTLSLTCTVSGGSISNDYWTWIRQHPGKGLEYIGMISVAGSTYHTPSLKGRVTISRDTSKNQFSLKLSSVTAADTAVYYCARSGGWLAPFDYWGRGTLVTVSS VL: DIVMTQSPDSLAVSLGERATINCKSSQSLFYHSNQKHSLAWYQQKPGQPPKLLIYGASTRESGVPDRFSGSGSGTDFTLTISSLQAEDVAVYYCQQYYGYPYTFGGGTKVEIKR
// result 0.000389
